Tested on: Colon cancer organoid
Method Description: Targeting of F14 CAF-induced therapy resistance in O23 CRC organoid-stroma co-culture. Cell viability is reported with Gefitinib.
Assay type: functional, Homo sapiens
Test Context: Homo sapiens, Concentration 10 uM; read-out: Cell Viability
Quick reference: viability at 10 µM of the listed items.
The reply should be a number in %, with the unit left off.

Query: viability at 10 µM; subject: `CN(C)c1ncnc(-c2ccc3nc(Nc4cc(CN5CCN(C(=O)CC(F)(F)F)CC5)ccn4)[nH]c3c2)c1Cl`
78.1

Query: viability at 10 µM; subject: `Cn1cc(-c2ccc3occ(-c4cccc(-c5ccncc5)c4)c3n2)cn1`
87.7

Query: viability at 10 µM; subject: `O=C(NC[C@H](O)CN1CCc2ccccc2C1)c1ccnc(NC2CCC2)c1`
43.2

Query: viability at 10 µM; subject: `CN(C)C(=O)Cn1cc(-c2nc(C3(c4ccc(-c5cnc(N)nc5)cc4)CC3)no2)cn1`
48.9

Query: viability at 10 µM; subject: `Cc1c(NC(=O)c2cc(C(N)=O)nc3cc(F)ccc23)c(C(F)(F)F)nn1Cc1ccc(C#N)cc1`
15

Query: viability at 10 µM; subject: `CCC(=N\O)/C(C)=C/c1ccc(F)c(C)c1`
49.8

Query: viability at 10 µM; subject: Cc1ccc2[nH]c(CNCCCc3ccncc3)cc(=O)c2c1 [UCSF924NC]
37.3

Query: viability at 10 µM; subject: `COCc1nc2cnc3cc(-c4c(C)noc4C)c(OC[C@H]4CCNC4)cc3c2n1[C@H](C)c1ccccc1`
47.2

Query: viability at 10 µM; subject: `Cn1cc(Cl)c2c(Oc3c(F)cc(Nc4cc(Cl)nc(N)n4)cc3F)ccnc21`
40.3

* * *

Test system: Colon cancer organoid
Method Description: Targeting of F14 CAF-induced therapy resistance in O14 CRC organoid-stroma co-culture. Cell viability is reported without Gefitinib.
Format: functional, Homo sapiens
Test Context: Homo sapiens, Concentration 10 uM; read-out: Cell Viability
Recorded Endpoint: viability at 10 µM (%)
The reply should be a number in %, with the unit left off.

CN(C)CCCOc1ccc(-c2cc(NCCCn3cccn3)nc(S(C)(=O)=O)n2)cc1
100

Then this compound:
Hello, I am looking for reported viability at 10 µM with Colon cancer organoid for `COc1cc(OC)cc(-c2noc(N3CCN(C)C4(CCN(c5ccnc(C)c5)CC4)C3)n2)c1` . Could you help?
103

* * *

Quick reference: viability at 10 µM of the listed items.
Tested on: Colon cancer organoid
Method Description: Targeting of F14 CAF-induced therapy resistance in O23 CRC organoid-stroma co-culture. Cell viability is reported with SN-38.
Assay type: functional, Homo sapiens
Test Context: Homo sapiens, Concentration 10 uM; read-out: Cell Viability

CN(C)C(=O)c1ccc(-c2cc(C(=O)N(C)C3CCCC3)no2)cc1O
76.4%
CC(C)N(CCCNC(=O)Nc1ccc(C(C)(C)C)cc1)C[C@H]1O[C@@H](n2cc(Br)c3c(N)ncnc32)[C@H](O)[C@@H]1O
19.8%
CN(C)CCCOc1ccc(-c2cc(NCCCn3cccn3)nc(S(C)(=O)=O)n2)cc1
1.65%

Query: viability at 10 µM; subject: NS(=O)(=O)c1cc(NC(=O)Cc2ccccc2)ccc1Oc1cccc(Cl)c1 [BAY-1797]
60.6%

Query: viability at 10 µM; subject: `Cc1cc(CN)cc(C)c1-c1ncn(C)c1-c1ccnc2cc(F)ccc12`
86.8%

Query: viability at 10 µM; subject: `CC(C)Oc1ccc(-c2c[nH]cc2CN(C)CCO)cc1`
80.1%

Query: viability at 10 µM; subject: CCNC(=O)c1cc2c(N3CCOCC3C)ccnc2[nH]1 (stereo not drawn)
97.3%

Query: viability at 10 µM; subject: `CCCc1cc(C)[nH]c(=O)c1CNC(=O)c1cc(-c2ccc(N3CCN(C(C)C)CC3)nc2)cc2c1cnn2C(C)C`
102%

Query: viability at 10 µM; subject: CNC(=O)c1ccccc1Nc1cc(Nc2ccc(N3CCOCC3)cc2OC)ncc1C(F)(F)F [VS-4718]
19.3%
